target_system: recombinant human TGR5 (Homo sapiens, UniProt Q8TDU6)
Sequence (Q8TDU6 1-330): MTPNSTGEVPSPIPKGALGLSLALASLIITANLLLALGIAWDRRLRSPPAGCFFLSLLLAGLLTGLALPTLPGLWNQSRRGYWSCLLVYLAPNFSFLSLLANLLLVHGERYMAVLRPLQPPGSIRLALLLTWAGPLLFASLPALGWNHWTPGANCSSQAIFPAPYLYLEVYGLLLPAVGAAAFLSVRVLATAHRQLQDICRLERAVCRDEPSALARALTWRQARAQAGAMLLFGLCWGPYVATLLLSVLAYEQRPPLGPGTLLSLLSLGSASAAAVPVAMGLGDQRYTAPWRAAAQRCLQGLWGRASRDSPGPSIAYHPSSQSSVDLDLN
assay_summary: cAMP assay (cAMP accumulation, HTRF) in CHOK1 cells stably expressing TGR5
conditions: CHOK1 cells stably expressing human TGR5, 30 minutes at RT, 1% DMSO
Method: The in vitro modulation of recombinant human TGR5 was determined as follows. A human TGR5 expression construct of human TGR5 was integrated into the genome of a CHOK1 cell line (Invitrogen). […] On the day of the cAMP accumulation assay, cells stably expressing the […] TGR5 construct were centrifuged at 1000 rpm for 5 minutes. […] The cells were counted using 1:2 dilution and then adjusted to 0.4-0.5×10^6 cells/mL in assay buffer, if necessary. […]
Counter-ions that a name gives are not always drawn.
measured_quantity: EC50 (nM)

Returns the measured EC50 for the input molecule. Input: Cc1c(Cl)cccc1OCCCC(=O)N1C[C@@H]2C[C@@H]2c2c(-c3cnn(Cc4cccc(NC(=O)NCC(=O)O)c4)c3)cccc21
37

Returns the measured EC50 for the input molecule. Input: Cc1c(OCCCC(=O)N2CCCc3c(-c4cnn(Cc5cccc(C(=O)O)c5)c4)cccc32)cccc1C(F)(F)F
586

Returns the measured EC50 for the input molecule. Input: Cc1c(Cl)cccc1OC(C)(C)COC(=O)N1CCCOc2c(-c3cnn(Cc4c(F)cc(C(=O)NCCS(=O)(=O)O)cc4Cl)c3)cccc21
1330

Returns the measured EC50 for the input molecule. Input: Cc1cccc(OCCCC(=O)N2CCCOc3c(-c4cnn(Cc5cccc(N(C)C(=O)NCS(=O)(=O)O)c5)c4)cccc32)c1C
1500

Returns the measured EC50 for the input molecule. Input: Cc1c(Cl)cccc1OCCOC(=O)N1C[C@@H]2C[C@@H]2c2c(-c3cnn(Cc4cc(C(=O)N5C[C@@H](O)C[C@H]5C(=O)O)ccc4Cl)c3)cccc21
188

Returns the measured EC50 for the input molecule. Input: Cc1c(Cl)cccc1OCCOC(=O)N1C[C@@H]2C[C@@H]2c2c(-c3cnn(Cc4cc(C(=O)N[C@@H](CCC[N+](C)(C)C)C(=O)O)ccc4Cl)c3)cccc21 [Example 690, TFA salt]
45

Returns the measured EC50 for the input molecule. Input: Cc1cccc(OCCCC(=O)N2CCCc3c(-c4cnn(Cc5cccc(C(=O)N6CCC(C(=O)O)C6)c5)c4)cccc32)c1C (stereo not drawn)
1360

Returns the measured EC50 for the input molecule. Input: Cc1c(Cl)cccc1OCCCC(=O)N1CCCc2c(-c3cnn(CC(=O)O)c3)cccc21
2150

Returns the measured EC50 for the input molecule. Input: CCOC(=O)CNC(=O)c1cccc(Cn2cc(-c3cccc4c3[C@H]3C[C@H]3CN4C(=O)CCCOc3cccc(Cl)c3C)cn2)c1 [Example 924B]
27

Returns the measured EC50 for the input molecule. Input: Cc1cccc(OCCCC(=O)N2CCCc3c(-c4cnn(Cc5cncc(C(=O)O)c5)c4)cccc32)c1C [Example 359, TFA salt]
1650

a = Cc1c(Cl)cccc1OC(C)(C)COC(=O)N1CCCOc2c(-c3cnn(Cc4c(F)cc(C(=O)NCCC(=O)O)cc4Cl)c3)cccc21
b = Cc1c(Cl)cccc1OCCCC(=O)N1C[C@@H]2C[C@@H]2c2c(-c3cnn(Cc4cccc(C(=O)NCC(=O)O)c4)c3)cccc21 (single isomer, unassigned)
For the pair a and b , which entry has the numerically smaller recorded EC50? Refer to your chosen entry by its label in the reply.
b

Attribution: patent US9062028B2
